- Tested on: U2OS
- ASSAY_EXPLANATION: Incucyte cell viability with U2OS; also: unitless GR value; below 1 slowed growth and below 0 cell loss
- Type: toxicity, cell-based
- ASSAY_CONDITIONS: human, 6 h, 10 µM, compound concentration 10 uM, replicate number 1
MEASUREMENT_TYPE: Growth Rate
# answer = number (no unit)

Cn1c(C(=O)N[C@@H](CO)c2ccc(C(=O)O)cc2)cc2cc(Cl)ccc21 : 0.58
CS(=O)(=O)NCC[C@H](NC(=O)c1cncc2c1cnn2-c1ccc(F)cc1)c1ccnc(S(C)(=O)=O)c1 : 0.83
Cl.O=C(NCCN1CCC2(CC1)C(=O)NCN2c1cccc(F)c1)c1ccc2ccccc2c1 : 0.46

Consider the additional molecule presented here.
Input: Report Growth Rate for CC(C)S(=O)(=O)c1ccccc1Nc1nc(N[C@@H]2CCCN(CCCCCCCNC(=O)COc3cccc4c3C(=O)N(C3CCC(=O)NC3=O)C4=O)C2)ncc1Cl (some centres undefined) please.
Output: 0.86
